All values here come from patent US20230219962A1.

Biological target: UniProtKB Q9NR97
Sequence (Q9NR97 27-1041): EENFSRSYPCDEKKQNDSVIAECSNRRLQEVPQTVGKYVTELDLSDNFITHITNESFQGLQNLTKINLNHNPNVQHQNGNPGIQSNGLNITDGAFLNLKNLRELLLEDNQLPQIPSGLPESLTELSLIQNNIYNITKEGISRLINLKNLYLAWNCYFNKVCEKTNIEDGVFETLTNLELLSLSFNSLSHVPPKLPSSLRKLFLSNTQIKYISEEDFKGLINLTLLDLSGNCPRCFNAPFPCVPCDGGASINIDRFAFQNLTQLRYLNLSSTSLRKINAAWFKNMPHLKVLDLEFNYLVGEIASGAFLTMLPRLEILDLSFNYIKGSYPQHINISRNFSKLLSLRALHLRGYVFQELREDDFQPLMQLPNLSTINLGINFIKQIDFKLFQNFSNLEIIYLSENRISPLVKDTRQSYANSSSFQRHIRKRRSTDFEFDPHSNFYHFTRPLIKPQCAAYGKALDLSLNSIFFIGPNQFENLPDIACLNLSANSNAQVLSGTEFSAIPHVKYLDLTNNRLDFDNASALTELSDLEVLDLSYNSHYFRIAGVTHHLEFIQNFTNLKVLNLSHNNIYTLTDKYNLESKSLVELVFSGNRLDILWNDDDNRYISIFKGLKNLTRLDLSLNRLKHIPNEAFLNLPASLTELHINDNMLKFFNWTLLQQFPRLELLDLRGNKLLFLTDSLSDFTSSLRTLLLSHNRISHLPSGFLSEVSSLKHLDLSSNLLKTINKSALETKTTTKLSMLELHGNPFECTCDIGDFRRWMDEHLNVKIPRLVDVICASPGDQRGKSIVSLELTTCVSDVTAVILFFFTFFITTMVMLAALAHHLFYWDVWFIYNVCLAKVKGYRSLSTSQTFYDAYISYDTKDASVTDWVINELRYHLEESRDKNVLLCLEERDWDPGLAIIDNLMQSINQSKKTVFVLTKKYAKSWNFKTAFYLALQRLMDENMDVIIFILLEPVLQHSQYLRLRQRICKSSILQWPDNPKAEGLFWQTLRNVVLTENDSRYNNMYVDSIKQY
Test: Human TLR8 Reporter Assay
Conditions: HEK-Blue hTLR8 cells, 16 hours, normalized to tl8-506 (1 μM) and DMSO
pEC50: −log10 of the molar value.
Listing of recorded pEC50 by entry.
Endpoint: pEC50

> print(dat)
                                   compound  cmp  numeric.readout
1  CCCCNc1nc(N)nc2cn(Cc3ccccc3OC(C)C)nc12 [Compound 37]    <             5.00
2  CCCCNc1nc(N)nc2cn(Cc3c(OC)cc(CN4CCNCC4)cc3OC)nc12 [Compound 62]    =             5.83
3  CCCCNc1nc(N)nc2cn(Cc3ccc(C(C)NC)cc3OC)nc12 (centres unmarked) [Compound 193]    =             6.97
4  C=CCN(C)Cc1ccc(Cn2cc3nc(N)nc(N[C@H](CO)CCC)c3n2)c(OC)c1 [Compound 156]    =             6.82
5  CCC[C@@H](CO)Nc1nc(N)nc2cn(Cc3ncccc3OC)nc12 [Compound 133]    =             6.79
